target: MHC-II DRB1*04:01 (Homo sapiens, UniProt P01903+P01911, A100K/A169T/F76Y/I96L/K127E/L162R/M171V/N62H/P40V/Q125Y/R42H/S133A/S149N/S66Y/V115G/V209L/W38E); assay: Cell-free REVEAL class II binding assay; conditions: signal of test peptide as percentage of allele-specific positive control peptide, fluorescence, conformation-specific monoclonal antibody
For each of the sequences below, state its Binding Score.
Answers are plain numbers, in %.

Answered cases to consult:
sequence_content="LSTRQNVEGSYDGAY [synthetic wild type FVIII 15 mer peptide, region of ns-SNP D1241E]" reported_measurement=15.2
sequence_content="PIIARYIRLHPTHYS [synthetic wild type FVIII 15 mer peptide]" reported_measurement=25.4
sequence_content="SLHAVGVSYWKASEG [synthetic wild type FVIII 15 mer peptide]" reported_measurement=1.3

Each sequence below has a reported value. Please supply its Binding Score.
1. TLTLFPFSGETVFMS [synthetic wild type FVIII 15 mer peptide]
2. PWFAHRTPMPKIQNV [synthetic wild type FVIII 15 mer peptide, region of ns-SNP R776G]

1: 7.3; 2: 6.4

Each sequence below has a reported value. Please supply its Binding Score.
1. YNIYPHGITDVRPLY [synthetic wild type FVIII 15 mer peptide, region of ns-SNP R484H]
2. SYWKASEGAEYDDQT [synthetic wild type FVIII 15 mer peptide]
3. PLLTRYLRIHPQSWV [synthetic wild type FVIII 15 mer peptide]

1. 2.1
2. 1.5
3. 12.1

----------
molecular target: MHC-II DRB1*07:01 (Homo sapiens, UniProt P01903+P01911, A100R/A102G/A103Q/D57E/D86V/E43K/F76Y/K127E/L162R/M171V/P40G/Q125H/Q99D/R33Q/R42Y/R54Q/S133A/S66F/T210M/V115G/Y107V/Y59L/Y89S); test: Cell-free REVEAL class II stability assay; settings: half-life of peptide-MHC-II complex (h, capped at 120) x Binding Score / 100, conformational ELISA
PROPERTY NAME: Stability Index

Answered cases to consult:
sequence_content="TVEDGPTKSDPRCLT [synthetic wild type FVIII 15 mer peptide]" reported_measurement=0.0
sequence_content="AVGVSYWKASEGAEY [synthetic wild type FVIII 15 mer peptide]" reported_measurement=0.0

Each sequence below has a reported value. Please supply its Stability Index.
1. AHRTPMPKIQNVSSS [synthetic wild type FVIII 15 mer peptide, region of ns-SNP R776G]
2. KTDPWFAHRTPMPKI [synthetic wild type FVIII 15 mer peptide, region of ns-SNP R776G]
3. GPTKSDPRCLTRYYS [synthetic wild type FVIII 15 mer peptide]
4. YIRLHPTHYSIRSTL [synthetic wild type FVIII 15 mer peptide]
5. SRPYNIYPHGITDVR [synthetic wild type FVIII 15 mer peptide, region of ns-SNP R484H]
6. PLLTRYLRIHPQSWV [synthetic wild type FVIII 15 mer peptide]

1: 0.0; 2: 1.2; 3: 0.0; 4: 20.6; 5: 0.0; 6: 2.0

----------
biological target: MHC-II DRB1*04:01 (Homo sapiens, UniProt P01903+P01911, A100K/A169T/F76Y/I96L/K127E/L162R/M171V/N62H/P40V/Q125Y/R42H/S133A/S149N/S66Y/V115G/V209L/W38E); experiment: Cell-free REVEAL class II stability assay; conditions: half-life of peptide-MHC-II complex (h, capped at 120) x Binding Score / 100, conformational ELISA
PROPERTY NAME: Stability Index

Answered cases to consult:
sequence_content="AHRTPMPKIQNVSSS [synthetic wild type FVIII 15 mer peptide, region of ns-SNP R776G]" reported_measurement=0.1
sequence_content="GPTKSDPRCLTRYYS [synthetic wild type FVIII 15 mer peptide]" reported_measurement=0.1
sequence_content="SRPYNIYPHGITDVR [synthetic wild type FVIII 15 mer peptide, region of ns-SNP R484H]" reported_measurement=0.0

Each sequence below has a reported value. Please supply its Stability Index.
1. DVRPLYSRRLPKGVK [synthetic wild type FVIII 15 mer peptide, region of ns-SNP R484H]
2. TVEDGPTKSDPRCLT [synthetic wild type FVIII 15 mer peptide]

1. 0.0
2. 0.0

----------
For each of the sequences below, state its Stability Index.
molecular target: MHC-II DRB1*03:01 (Homo sapiens, UniProt P01903+P01911, A100K/A102G/A103R/A169T/F55Y/I96L/K41T/L162R/M171V/P40S/Q125H/Q178H/Q39Y/R42S/S66N/T106N/T262R/W38E/Y61H); test: Cell-free REVEAL class II stability assay; details: half-life of peptide-MHC-II complex (h, capped at 120) x Binding Score / 100, conformational ELISA
Sequence (P01903 26-254 limits assumed, other chains not shown): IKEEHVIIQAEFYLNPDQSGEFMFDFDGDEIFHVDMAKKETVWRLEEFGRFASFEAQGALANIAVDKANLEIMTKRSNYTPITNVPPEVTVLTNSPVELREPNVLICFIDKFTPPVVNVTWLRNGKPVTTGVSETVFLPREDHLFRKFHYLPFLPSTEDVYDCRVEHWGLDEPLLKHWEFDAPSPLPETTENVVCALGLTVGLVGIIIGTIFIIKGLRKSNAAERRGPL
One number for each entry.

sequence_content="QKTMKVTGVTTQGVK [synthetic wild type FVIII 15 mer peptide, region of ns-SNP M2238V]" property_name="Stability Index" reported_measurement=0.0
sequence_content="PIIARYIRLHPTHYS [synthetic wild type FVIII 15 mer peptide]" property_name="Stability Index" reported_measurement=0.0
sequence_content="SDPRCLTRYYSSFVN [synthetic wild type FVIII 15 mer peptide]" property_name="Stability Index" reported_measurement=0.0
sequence_content="MKVTGVTTQGVKSLL [synthetic wild type FVIII 15 mer peptide, region of ns-SNP M2238V]" property_name="Stability Index" reported_measurement=0.0
sequence_content="YIRLHPTHYSIRSTL [synthetic wild type FVIII 15 mer peptide]" property_name="Stability Index" reported_measurement=2.4

Shift focus to the following entry.
Identify the reported Stability Index for the following entry. YISQFIIMYSLDGKK [synthetic wild type FVIII 15 mer peptide]
0.2

----------
molecular target: MHC-II DRB1*15:03 (Homo sapiens, UniProt P01903+P01911, Y59H); construct: purchased ProImmune; experiment: Cell-free REVEAL class II stability assay; details: half-life of peptide-MHC-II complex (h, capped at 120) x Binding Score / 100, conformational ELISA
Sequence (P01903 26-254, other chains not shown): as the sequence (P01903 26-254 limits assumed, other chains not shown) above
PROPERTY NAME: Stability Index
Numbers only.

Answered cases to consult:
sequence_content="GITDVRPLYSRRLPK [synthetic wild type FVIII 15 mer peptide, region of ns-SNP R484H]" property_name="Stability Index" reported_measurement=3.1
sequence_content="RQNVEGSYDGAYAPV [synthetic wild type FVIII 15 mer peptide, region of ns-SNP D1241E]" property_name="Stability Index" reported_measurement=0.0
sequence_content="YSLDGKKWQTYRGNS [synthetic wild type FVIII 15 mer peptide]" property_name="Stability Index" reported_measurement=0.0
sequence_content="RSNAWRPQVNNPKEW [synthetic wild type FVIII 15 mer peptide]" property_name="Stability Index" reported_measurement=0.0
sequence_content="NNPKEWLQVDFQKTM [synthetic wild type FVIII 15 mer peptide, region of ns-SNP M2238V]" property_name="Stability Index" reported_measurement=0.1
sequence_content="PWFAHRTPMPKIQNV [synthetic wild type FVIII 15 mer peptide, region of ns-SNP R776G]" property_name="Stability Index" reported_measurement=0.0
sequence_content="SYWKASEGAEYDDQT [synthetic wild type FVIII 15 mer peptide]" property_name="Stability Index" reported_measurement=0.0
sequence_content="KTDPWFAHRTPMPKI [synthetic wild type FVIII 15 mer peptide, region of ns-SNP R776G]" property_name="Stability Index" reported_measurement=0.0
sequence_content="QKFSSLYISQFIIMY [synthetic wild type FVIII 15 mer peptide]" property_name="Stability Index" reported_measurement=0.0
sequence_content="SDPRCLTRYYSSFVN [synthetic wild type FVIII 15 mer peptide]" property_name="Stability Index" reported_measurement=16.6

Each sequence below has a reported value. Please supply its Stability Index.
1. KMVYEDTLTLFPFSG [synthetic wild type FVIII 15 mer peptide]
2. NPPIIARYIRLHPTH [synthetic wild type FVIII 15 mer peptide]
3. SGYTFKHKMVYEDTL [synthetic wild type FVIII 15 mer peptide]

1: 0.0; 2: 18.2; 3: 0.0

Each sequence below has a reported value. Please supply its Stability Index.
1. IIMYSLDGKKWQTYR [synthetic wild type FVIII 15 mer peptide]
2. GPTKSDPRCLTRYYS [synthetic wild type FVIII 15 mer peptide]
3. PIIARYIRLHPTHYS [synthetic wild type FVIII 15 mer peptide]

1: 57.3; 2: 0.0; 3: 13.3

----------
For each of the sequences below, state its Stability Index.
Target: MHC-II DRB1*07:01 (Homo sapiens, UniProt P01903+P01911, A100R/A102G/A103Q/D57E/D86V/E43K/F76Y/K127E/L162R/M171V/P40G/Q125H/Q99D/R33Q/R42Y/R54Q/S133A/S66F/T210M/V115G/Y107V/Y59L/Y89S)
Test: Cell-free REVEAL class II stability assay
Settings: half-life of peptide-MHC-II complex (h, capped at 120) x Binding Score / 100, conformational ELISA
Description: We measured the half-life of each peptide-MHC-II complex using REVEAL peptide-MHC affinity assays developed by ProImmune Ltd. (Oxford, UK). On-rates of peptides were measured over a 96-hr period at 10°C. […] Assembly of peptide-MHC complexes was detected using a conformational ELISA involving an anti-HLA antibody. On-rates were calculated by fitting data to a one-phase association curve: [drawing 1] […] Percent denaturation of peptide-MHC complexes was also detected using a conformational ELISA. […]

Answered cases to consult:
sequence_content="SDPRCLTRYYSSFVN [synthetic wild type FVIII 15 mer peptide]" reported_measurement=0.0
sequence_content="IIMYSLDGKKWQTYR [synthetic wild type FVIII 15 mer peptide]" reported_measurement=0.1
sequence_content="SGYTFKHKMVYEDTL [synthetic wild type FVIII 15 mer peptide]" reported_measurement=0.0
sequence_content="IARYIRLHPTHYSIR [synthetic wild type FVIII 15 mer peptide]" reported_measurement=0.0
sequence_content="YSLDGKKWQTYRGNS [synthetic wild type FVIII 15 mer peptide]" reported_measurement=0.0
sequence_content="LQVDFQKTMKVTGVT [synthetic wild type FVIII 15 mer peptide, region of ns-SNP M2238V]" reported_measurement=0.1

Each sequence below has a reported value. Please supply its Stability Index.
1. VVNSLDPPLLTRYLR [synthetic wild type FVIII 15 mer peptide]
2. LSTRQNVEGSYDGAY [synthetic wild type FVIII 15 mer peptide, region of ns-SNP D1241E]

[0.0, 0.0]
